These data points were gathered from paper PMC7915026.

- Test system: F. oxysporum (RCMB 008002)
- PROCEDURE SUMMARY: MIC and MFC determination
- Format: cell-based
- EXPERIMENTAL PARAMETERS: Fusarium oxysporum, RCMB008002, read-out: MFC
In this section, each of the molecules is paired with its reported MFC.
READOUT NAME: MFC (µM)

MOLECULE	UNIT SYMBOL	VALUE REPORTED
N#Cc1c(-c2ccc(Cl)cc2)c(C#N)c(=O)n(-c2ccc(S(=O)(=O)NC(=N)N)cc2)c1N [Compound 3a]	µM	56.7
COc1ccc(/C=C(\C#N)C(=O)Nc2ccc(S(=O)(=O)NC(=N)N)cc2)cc1 [Compound 2b]	µM	222
Cc1cc(C)n(-c2ccc(S(=O)(=O)NC(=N)N)cc2)c(=O)c1C#N [Compound 8]	µM	136
N#CC(=Cc1ccc(Cl)cc1)C(=O)Nc1ccc(S(=O)(=O)NC(=N)N)cc1 [Compound 2a]	µM	217
C[C@@H]1[C@H](O)[C@@H](C)/C=C/C=C/C=C/C=C/C=C/C=C/C=C/[C@H](O[C@@H]2O[C@H](C)[C@@H](O)[C@H](N)[C@@H]2O)C[C@@H]2O[C@](O)(C[C@@H](O)C[C@@H](O)[C@H](O)CC[C@@H](O)C[C@@H](O)CC(=O)O[C@H]1C)C[C@H](O)[C@H]2C(=O)O [Amphotericin B, amphotericin B, reference compound]	µM	70.6
COc1ccc(/C=C(\C#N)C(=O)Nc2ccc(S(=O)(=O)NC(=N)N)cc2)cc1O [Compound 2d]	µM	66.8
N=C(N)NS(=O)(=O)c1ccc(NC(=O)c2cc3ccccc3oc2=N)cc1 [Compound 11]	µM	146

====

In this section, each of the compounds is paired with its reported Mean Diameter of the Inhibition Zone.
- System: E. coli ATCC 25922
- PROCEDURE SUMMARY: Inhibition zone, paper disk/agar diffusion
- Format: cell-based
- EXPERIMENTAL PARAMETERS: E. coli; Na = no activity
READOUT NAME: Mean Diameter of the Inhibition Zone (mm)

>>> df
                                   compound  value_reported
0  COc1ccc(-c2c(C#N)c(N)n(-c3ccc(S(=O)(=O)NC(=N)N)cc3)c(=O)c2C#N)cc1 [Compound 3b]              21
1  COc1ccc(C=Cc2cc(C)n(-c3ccc(S(=O)(=O)NC(=N)N)cc3)c(=O)c2C#N)cc1 [Compound 9b]              22
2  N#Cc1c(N)n(-c2ccc(S(=O)(=O)NC(=N)N)cc2)c(=O)c2c(=N)oc3ccccc3c12 [Compound 12]              14
3  N#CCC(=O)Nc1ccc(S(=O)(=O)NC(=N)N)cc1 [Compound 1]              16
4  Cc1cc2csc(N)c2c(=O)n1-c1ccc(S(=O)(=O)NC(=N)N)cc1 [Compound 10]              20
5  N#C/C(=C\c1ccc(O)cc1)C(=O)Nc1ccc(S(=O)(=O)NC(=N)N)cc1 [Compound 2c]              19
6  COc1ccc(-c2c(C#N)c(N)n(-c3ccc(S(=O)(=O)NC(=N)N)cc3)c(=O)c2C#N)cc1O [Compound 3d]              22
7  N=C(N)NS(=O)(=O)c1ccc(NC(=O)c2cc3ccccc3oc2=N)cc1 [Compound 11]              25

====

In this section, each of the compounds is paired with its reported melting point.
READOUT NAME: melting point

In [3]: df
Out[3]:
                                 mol_smiles  value_reported
0  N#Cc1c(-c2ccc(O)cc2)c(C#N)c(=O)n(-c2ccc(S(=O)(=O)NC(=N)N)cc2)c1N   265 to 268 °C
1  N#Cc1c(N)cc(N)n(-c2ccc(S(=O)(=O)NC(=N)N)cc2)c1=O          260 °C
2      N#CCC(=O)Nc1ccc(S(=O)(=O)NC(=N)N)cc1   172 to 174 °C
3  COc1ccc(-c2c(C(=O)Nc3ccc(S(=O)(=O)NC(=N)N)cc3)c(N)[nH]c(=O)c2C#N)cc1   265 to 268 °C
4  COc1ccc(-c2c(C#N)c(N)n(-c3ccc(S(=O)(=O)NC(=N)N)cc3)c(=O)c2C#N)cc1   256 to 258 °C
5  N#C/C(=C\c1ccc(O)cc1)C(=O)Nc1ccc(S(=O)(=O)NC(=N)N)cc1   256 to 258 °C
6  COc1ccc(-c2c(C(=O)Nc3ccc(S(=O)(=O)NC(=N)N)cc3)c(N)n(C3CCCCC3)c(=O)c2C#N)cc1   272 to 274 °C
7  COc1ccc(-c2c(C#N)c(N)n(-c3ccc(S(=O)(=O)NC(=N)N)cc3)c(=O)c2C#N)cc1O   250 to 252 °C
8  N#Cc1c(N)n(-c2ccc(S(=O)(=O)NC(=N)N)cc2)c(=O)c2c(=N)oc3ccccc3c12   266 to 268 °C

====

- Tested on: S. aureus ATCC 43300
- PROCEDURE SUMMARY: MIC and MBC against multidrug-resistant strains
- Format: cell-based
- EXPERIMENTAL PARAMETERS: Staphylococcus aureus, ATCC43300; S. aureus ATCC 43300; read-out: MIC
In this section, each of the compounds is paired with its reported MIC.
READOUT NAME: MIC (µM)

>>> print(df.to_string())
                                   compound  readout_name  value_reported
0  COc1ccc(/C=C(\C#N)C(=O)Nc2ccc(S(=O)(=O)NC(=N)N)cc2)cc1O [Compound 2d]           MIC            4.69
1  COc1ccc(/C=C(\C#N)C(=O)Nc2ccc(S(=O)(=O)NC(=N)N)cc2)cc1 [Compound 2b]           MIC            19.6
2  Cc1cc(C)n(-c2ccc(S(=O)(=O)NC(=N)N)cc2)c(=O)c1C#N [Compound 8]           MIC            18.1
3  N#Cc1c(-c2ccc(Cl)cc2)c(C#N)c(=O)n(-c2ccc(S(=O)(=O)NC(=N)N)cc2)c1N [Compound 3a]           MIC            8.33
4  CCn1cc(C(=O)O)c(=O)c2cc(F)c(N3CCNCC3)cc21 [Norfloxacin, reference compound]           MIC            3.91
5  N=C(N)NS(=O)(=O)c1ccc(NC(=O)c2cc3ccccc3oc2=N)cc1 [Compound 11]           MIC            40.5

====

In this section, each of the molecules is paired with its reported MBC.
- System: E. coli ATCC BAA-196
- PROCEDURE SUMMARY: MIC and MBC against multidrug-resistant strains
- Type: cell-based
- EXPERIMENTAL PARAMETERS: Escherichia coli, ATCCBAA196; E. coli ATCC BAA-196; read-out: MBC
READOUT NAME: MBC (µM)

>>> df
                                   molecule  value_reported
0  N=C(N)NS(=O)(=O)c1ccc(NC(=O)c2cc3ccccc3oc2=N)cc1              48
1  COc1ccc(/C=C(\C#N)C(=O)Nc2ccc(S(=O)(=O)NC(=N)N)cc2)cc1            9.38
2  COc1ccc(/C=C(\C#N)C(=O)Nc2ccc(S(=O)(=O)NC(=N)N)cc2)cc1O            9.38
3  CCn1cc(C(=O)O)c(=O)c2cc(F)c(N3CCNCC3)cc21 [Norfloxacin, reference compound]            8.32
4  Cc1cc(C)n(-c2ccc(S(=O)(=O)NC(=N)N)cc2)c(=O)c1C#N            53.6
5  N#Cc1c(-c2ccc(Cl)cc2)c(C#N)c(=O)n(-c2ccc(S(=O)(=O)NC(=N)N)cc2)c1N            33.4

====

- System: B. subtilis ATCC 6633
- PROCEDURE SUMMARY: MIC and MBC determination
- Format: cell-based
- EXPERIMENTAL PARAMETERS: Bacillus subtilis, ATCC6633; B. subtilis; read-out: MBC
READOUT NAME: MBC

                                   molecule  value_reported
0  N=C(N)NS(=O)(=O)c1ccc(NC(=O)c2cc3ccccc3oc2=N)cc1 [Compound 11]         17.2 µM
1  N#Cc1c(-c2ccc(Cl)cc2)c(C#N)c(=O)n(-c2ccc(S(=O)(=O)NC(=N)N)cc2)c1N [Compound 3a]         19.6 µM
2  COc1ccc(/C=C(\C#N)C(=O)Nc2ccc(S(=O)(=O)NC(=N)N)cc2)cc1 [Compound 2b]         35.2 µM
3  Cc1cc(C)n(-c2ccc(S(=O)(=O)NC(=N)N)cc2)c(=O)c1C#N [Compound 8]         30.6 µM
4  COc1ccc(/C=C(\C#N)C(=O)Nc2ccc(S(=O)(=O)NC(=N)N)cc2)cc1O [Compound 2d]         9.38 µM
5  N#CC(=Cc1ccc(Cl)cc1)C(=O)Nc1ccc(S(=O)(=O)NC(=N)N)cc1 [Compound 2a]         45.8 µM
